These measurements were taken from paper PMC10319115.

# System: Kir6.2/SUR2A
# Construct: gene KCNJ11; hetero-octamer
# assay_explanation: Tl+ flux (FluxOR II), initial rate, HEK-293
# Type: cell-based
# recorded_conditions: opener; 10 min preincubation
endpoint: EC50
Respond with the figure and its unit, in that order.

Incoming: Quick one: EC50 of CC(NC(=NC#N)Nc1ccncc1)C(C)(C)C (stereo not shown) ?
Outgoing: 11 µM
